- target-entity: T1, BAFF (Sino biological, 10056-HNCH) (UniProt Q9Y275 134-285, biotinylated in the blocking ELISA (site not stated))
- T1 construct: also called BLyS
- T1 sequence (Q9Y275 134-285 limits assumed): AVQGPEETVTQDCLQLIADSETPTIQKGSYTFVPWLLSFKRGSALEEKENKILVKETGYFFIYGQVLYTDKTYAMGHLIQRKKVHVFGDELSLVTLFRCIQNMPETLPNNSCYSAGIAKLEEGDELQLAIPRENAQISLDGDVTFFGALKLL
- test-summary: ELISA, BAFF coated at 1 ug/mL, anti-human IgG-HRP
# EC50 per entry
Write the value in nM as a bare number.

Recorded EC50, per entry:
Give the measured EC50 of TACI-9-13-Fc (Fc fusion) STSCRKEQGKFYDHLLRDCISCASICGQHPKQCAYYCENKLDKTHTCPPCPAPEAEGAPSVFLFPPKPKDTLMISRTPEVTCVVVDVSHEDPEVKFNWYVDGVEVHNAKTKPREEQYNSTYRVVSVLTVLHQDWLNGKEYKCKVSNKALPSSIEKTISKAKGQPREPQVYTLPPSRDELTKNQVSLTCLVKGFYPSDIAVEWESNGQPENNYKTTPPVLDSDGSFFLYSKLTVDKSRWQQGNVFSCSVMHEALHNHYTQKSLSLSPGK .
0.433

Field entry: TACI-9-7-Fc (Fc fusion) SRSCRKEQGKFYDHLLRACISCASICGQHPKQCAYFCENKLDKTHTCPPCPAPEAEGAPSVFLFPPKPKDTLMISRTPEVTCVVVDVSHEDPEVKFNWYVDGVEVHNAKTKPREEQYNSTYRVVSVLTVLHQDWLNGKEYKCKVSNKALPSSIEKTISKAKGQPREPQVYTLPPSRDELTKNQVSLTCLVKGFYPSDIAVEWESNGQPENNYKTTPPVLDSDGSFFLYSKLTVDKSRWQQGNVFSCSVMHEALHNHYTQKSLSLSPGK
0.727

Field entry: TACI-9-9-Fc (Fc fusion) SRSCRKEQGKFYDHLLRTCISCASICGQHPKQCARFCENKLDKTHTCPPCPAPEAEGAPSVFLFPPKPKDTLMISRTPEVTCVVVDVSHEDPEVKFNWYVDGVEVHNAKTKPREEQYNSTYRVVSVLTVLHQDWLNGKEYKCKVSNKALPSSIEKTISKAKGQPREPQVYTLPPSRDELTKNQVSLTCLVKGFYPSDIAVEWESNGQPENNYKTTPPVLDSDGSFFLYSKLTVDKSRWQQGNVFSCSVMHEALHNHYTQKSLSLSPGK
0.937

Field entry: TACI-9-12-Fc (Fc fusion) STSCRKEQGKFYDHLLRDCISCASICGQHPKQCAAFCENKLDKTHTCPPCPAPEAEGAPSVFLFPPKPKDTLMISRTPEVTCVVVDVSHEDPEVKFNWYVDGVEVHNAKTKPREEQYNSTYRVVSVLTVLHQDWLNGKEYKCKVSNKALPSSIEKTISKAKGQPREPQVYTLPPSRDELTKNQVSLTCLVKGFYPSDIAVEWESNGQPENNYKTTPPVLDSDGSFFLYSKLTVDKSRWQQGNVFSCSVMHEALHNHYTQKSLSLSPGK
0.122

Turning now to a further record.
Give the measured EC50 of TACI-9-15-Fc (Fc fusion) STSCREEQGEFYDHLLRDCISCASICGQHPKQCAAFCENKLDKTHTCPPCPAPEAEGAPSVFLFPPKPKDTLMISRTPEVTCVVVDVSHEDPEVKFNWYVDGVEVHNAKTKPREEQYNSTYRVVSVLTVLHQDWLNGKEYKCKVSNKALPSSIEKTISKAKGQPREPQVYTLPPSRDELTKNQVSLTCLVKGFYPSDIAVEWESNGQPENNYKTTPPVLDSDGSFFLYSKLTVDKSRWQQGNVFSCSVMHEALHNHYTQKSLSLSPGK .
0.0869
